Hi there, I'd appreciate the recorded %Inh for every entry that follows.
system: SRPK3; conditions: concentration: 1 μM, replicates: in singlicate; n = 1;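 note: KINOMEscan kinase panel screen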
Numbers only, in %.

Recorded %Inh, per entry:
| Record Smiles | %Inh [%] |
| --- | --- |
| Nc1cccc(-c2ccc3c(N)n[nH]c3c2)n1 | 0 |
| COc1ccc(Nc2nccc(-c3ccc(NC(=O)c4cc5cc(F)ccc5[nH]4)cc3)n2)cc1 | 7 |
| COc1ccc(CSc2nnc(-c3ccc4nccn4c3)o2)cc1C(F)(F)F | 16 |

Items follow; give %Inh for each.
1. Cc1c(Cn2c3ccccc3n3c(=O)cc(N4CCOCC4)nc23)cccc1C(F)(F)F
2. COc1cc2ncnc(Nc3cccc(Br)c3)c2cc1OC.Cl
3. CNc1nc(-c2ccc3c(N)n[nH]c3c2)cc(N2C[C@@H](C(=O)NC3CCCCC3)OC[C@H]2C)n1
4. Cn1cncc1-c1cc2c(Nc3ccc(OCc4ccccc4)cc3)ncnc2cn1
5. Fc1ccc(-c2nc3n(c2-c2ccncc2)CCS3)cc1
6. COc1nccc(-c2c(-c3ccc(F)cc3)ncn2CCCN2CCOCC2)n1

## Output
0
0
0
0
0
23

---

Hi there, I'd appreciate the recorded %Inh for every entry that follows.
test system: PIK3C2B; conditions: concentration: 1 μM, replicates: in singlicate; n = 1
Numbers only, in %.

Recorded %Inh, per entry:
| Compound | %Inh (%) |
| --- | --- |
| COc1ccc(CSc2nnc(-c3ccc4ncsc4c3)o2)cc1C(F)(F)F | 0 |
| COc1ccc(CSc2nnc(-c3ccc4c(c3)CCO4)o2)cc1 | 0 |
| COc1cc2ncnc(Nc3cccc(Br)c3)c2cc1OC.Cl | 8 |
| Cc1c(Cn2c3ccccc3n3c(=O)cc(N4CCOCC4)nc23)cccc1C(F)(F)F | 9 |
| Cc1cnc(N)c(/C=C/c2cncc(C(=O)NCCc3ccc(Cl)cc3Cl)c2)c1.Cl | 0 |

Items follow; give %Inh for each.
1. CNc1nc(-c2ccc3c(N)n[nH]c3c2)cc(N2C[C@@H](C(=O)Nc3ccccc3)CC[C@H]2C)n1
2. Cc1ccc(NC(=O)Nc2ccc(Cl)c(C(F)(F)F)c2)cc1-c1ccc(C(=O)Nc2ccncc2)cc1

## Output
0
0

Items follow; give %Inh for each.
1. O=C(Nc1n[nH]c2nc(-c3cccs3)c(Br)cc12)C1CC1
2. COc1cccc(C2=C(Nc3cc(Cl)c(O)c(Cl)c3)C(=O)NC2=O)c1
3. O=C(Nc1n[nH]c2nc(-c3ccco3)c(Br)cc12)C1CCN(Cc2ccccc2)C1.O=C(O)[C@H](O)[C@@H](O)C(=O)O (stereo not drawn)

## Output
1. 0
2. 0
3. 16

Items follow; give %Inh for each.
1. Fc1ccc(-c2nc[nH]c2-c2ccncc2)cc1
2. O=C1NC(=O)C(c2ccc(Cl)cc2)=C1Nc1ccc(O)cc1
3. Cn1cnc2c(N)ncnc21
4. O=c1cc(N2CCOCC2)nc2n(Cc3cccc(Cl)c3Cl)c3ccccc3n12
5. COC(=O)c1cccc(NC(=O)NC2CCN(c3ccnc(Nc4ccc(OC)cc4)n3)C2)c1 (stereo not drawn)

## Output
1: 0; 2: 0; 3: 0; 4: 0; 5: 20

---

Hi there, I'd appreciate the recorded %Inh for every entry that follows.
tested on: TLK1; details: concentration: 1 μM, replicates: in singlicate; n = 1
Respond with the figure and its unit, in that order.

| Molecule | %Inh |
| --- | --- |
| CNCc1ccc2nc(NC(=O)c3ccc(C(C)(C)C)cc3)cn2c1 | 0% |
| COc1ccc(Nc2nccc(N3CCC(NC(=O)c4cc5ccccc5s4)C3)n2)cc1 (stereo not drawn) [GSK1379738] | 3% |

Consider now this further molecule.
## Input Given CC(=O)c1c(C)c2cnc(Nc3ccn(C)n3)nc2n(C2CCCC2)c1=O , state its recorded %Inh.
## Output 1%
